Data provenance: the supplement of paper PMC9170038

tested on: MS2 coat protein; assay: apparent KD of MS2 coat protein; designed switch direction (-1 OFF switch, 1 ON switch): -1; higher = weaker reporter binding; conditions: Eterna round: R95; input ligand: FMN 200 uM
Decision: apparent KD of MS2 coat protein compared against 40 nM; not below it gives Fulfilled, below it gives Not fulfilled.

Polymer sequence: CUCCUCAUGGCGCCUAAACACAUGAGGAUCACCCAUGUACAGGCUUUCUGCCGUCUUAUAAUAAAACCGAGGAUGCG [Soedlexe] (puzzle: Sensor v3, turn-off variant 1)
Group: Not fulfilled
//
Polymer sequence: UUUUAACAUGAGGAUCACCCAUGUGAGGAUAUCCUAUUUUUUUUUUUUUUUUUUUUUUGGAGAAGGCACAUUUU [My solution] (puzzle: Exclusion 1)
Group: Not fulfilled
//
Polymer sequence: ACAAGCGAAAGGCUCGUCUUAUUUUUGUAGAGGUCCUAAACAUGAGGAUCACCCAUGUAGUGGCGAUGGUGGAGGUA [JR_SV3TOV2_Sub068] (puzzle: Sensor v3, turn-off variant 2)
Group: Fulfilled
//
Polymer sequence: GAAAAGGUAGGAUAUACGAAUAAAAAGGGUAGAAAAAAAACACAUGAGGAUCACCCAUGUAGAAGGACCAAAAG [salish99_ex2_r3_085] (puzzle: Exclusion 2)
Group: Fulfilled
//
Polymer sequence: AGGAAGCAAGGAUAUACGAGGAGAAGGUGUCCAUCUAAAGGACAUGAGGAUCACCCAUGUAGAAGGUGCGAGAA [JR_Exclu2_Sub049] (puzzle: Exclusion 2)
Group: Fulfilled
//
Polymer sequence: GAUUACUGCAAGCUUAGGGACAUGAGGAUCACCCAUGUUCGUCUUAUUGAUCUAGGUACGCUGACGUACCUAGAUCU [JL-sv1-2.29 Brourd mod] (puzzle: Sensor v3, turn-off variant 1)
Group: Not fulfilled
//
Polymer sequence: GACCGGACGUGGUCUGGUAACAUGAGGAUCACCCAUGUAGGUCUAAGAACAAGCCUUUUGCACGCUCGUCUUAUAUU [JR_SV3TOV1_Sub061] (puzzle: Sensor v3, turn-off variant 1)
Group: Fulfilled
//
Polymer sequence: GAUAAGGUAGGAUAUACGAAUAAAGAGGGUAGUAAUAAUACACAUGAGGAUCACCCAUGUAGAAGGACCAAUAG [Mat - Exclusion 2 - Mod of my Tesla design - D42] (puzzle: Exclusion 2)
Group: Fulfilled
//
Polymer sequence: CUAGAUCUUCGGAUCUAGUACAUGAGGAUCACCCAUGUGACGAGUAGAUCCUCAAACAAGCUUUUUGCUCGUCUUAU [Sensor v3 - Turn-off variant 1 - 20] (puzzle: Sensor v3, turn-off variant 1)
Group: Fulfilled
//
Polymer sequence: CUGAAGAAGUUAGUGGCCUACAUGAGGAUCACCCAUGUGAGGGACAUGUCGAGGCAGAAGCUGAGUGCUCGUCUGUA [JR_SV3TOV1_Sub042] (puzzle: Sensor v3, turn-off variant 1)
Group: Not fulfilled
//
Polymer sequence: GAAAAGGUAGGAUAUACGAAAAAAAAGGGUAGAAAAAAAACACAUGAGGAUCACCCAUGUAGAAGGACCGAAAG [salish99_ex2_r3_037] (puzzle: Exclusion 2)
Group: Fulfilled
//
Polymer sequence: CUGGUCCGAGGAUAUAUAUUGUGAUACAUGAGGAUCACCCAUGUAAUAAUAUGGAUAUAAAUAGAAGGCGGACUAG [Mat - Exclusion 5 - JL mod - D49] (puzzle: Exclusion 5)
Group: Not fulfilled
//
Polymer sequence: CAGUACUGAGGAUAUACAUGAGGAUCACCCAUGUGUUCCAGCUAGGAUACUAGCAAAAGUAGAAGGCAGUACUG [salish99_ex3_r3_095x] (puzzle: Exclusion 3)
Group: Fulfilled
//
Polymer sequence: UAUAGACAUGAGGAUCACCCAUGUGAGGAUAUGUACAACAACAAGCCGGAAGCGGAAUACAGAAGGCACAAAUA [JR_Exclusion1_Sub029] (puzzle: Exclusion 1)
Group: Not fulfilled
//
Polymer sequence: CUAGAUCUUCGGAUCUAGGACAUGAGGAUCACCCAUGUCACGAGCAGAUCUUCAUGCAAGCUUUUUGCUCGUCUUAU [Sensor v3 - Turn-off variant 1 - 37] (puzzle: Sensor v3, turn-off variant 1)
Group: Not fulfilled
//
Polymer sequence: GAGGUGUUAGGAUAUCGGAGAUGGAGAAGAACGGGAUGAGCCGAGAAGGAACAUGAGGAUCACCCAUGUAGGUG [JR_Exclu4_Sub031] (puzzle: Exclusion 4)
Group: Fulfilled
//
Polymer sequence: AAACCUGCCCAUGACCGCAAGCCUUUUGCUUGUCUUACCACAUGAGGAUCACCCAUGUGACAUGGGCUCCUUAUAAA [Solabixe] (puzzle: Sensor v3, turn-off variant 2)
Group: Not fulfilled
//
Polymer sequence: GAUUAUGCGAGCUUUAGGGACAUGAGGAUCACCCAUGUUCGUCUUAUUGAUCUGGAUGCACUAACAUACCUAAAUCU [JMF 27] (puzzle: Sensor v3, turn-off variant 1)
Group: Fulfilled
//
Polymer sequence: ACAACAAGCUUUUUGUUCGUAGAACAUGAUGCUCUAGUCACAUGAGGAUCACCCAUGUCAACUAGAUAGAUAGUUGA [JR_SV3TOV2_Sub062] (puzzle: Sensor v3, turn-off variant 2)
Group: Fulfilled
//
Polymer sequence: CCAGGCGUCUUGGCUCGUCUUAUUUGGAGAGGAUUGAUAACAUGAGGAUCACCCAUGUGUGUGGGAGCGUUGCAGUG [JR_SV3TOV2_Sub019] (puzzle: Sensor v3, turn-off variant 2)
Group: Fulfilled

----------
tested on: MS2 coat protein; test: apparent KD of MS2 coat protein; designed switch direction (-1 OFF switch, 1 ON switch): -1; higher = weaker reporter binding; settings: input ligand: FMN 200 uM
# binarize apparent KD of MS2 coat protein: threshold 80 nM inclusive, high side True, low side False

Polymer sequence: UAUUUACAUGAGGAUCACCCAUGUCAGGAUAUGCUCGAUAUAUGGAAACAUAUAUCGAGCAGAAGGGACUAGCG [Jieuxxlusion 7 - Jieux - Exclusion 1] (Eterna round: R97, puzzle: Exclusion 1)
Group: True
//
Polymer sequence: AAAAUGUCAGGAUAUUGUUAGUUUAGUUGUUUGUAUUAGUUCGAGAAGGGACAUGAGGAUCACCCAUGUUAAAA [Ex4 #67] (Eterna round: R97, puzzle: Exclusion 4)
Group: False
//
Polymer sequence: UGCGGGCUUUUGAGACCUCACAUGAGGAUCACCCAUGUGCUUGUCUUGUGGGUCGGUCGGUCGUUGGCUGGCUGACG [Sensor-V1 #96] (Eterna round: R97, puzzle: Sensor, turn-off variant 1)
Group: False
//
Polymer sequence: ACUUAUUGAGGAUAUACAUAAAUUUACAUGAGGAUCACCCAUGUUCUUCUAUGUAUAUAUGUAGAAGGCAGAAGAG [Mat - Exclusion 5 - JL Mod - D33] (Eterna round: R97, puzzle: Exclusion 5)
Group: False
//
Polymer sequence: UUAAAUCAUGUAGGAUAUGCGUGGCGAAGCUAUGCAGAAGGACAUGAGGAUCACCCAUGUGCUUGCGUCUGCGUACAGAUGCUA [JL ENG1 1.12] (Eterna round: R96, puzzle: Exclusion NG 1)
Group: True
//
Polymer sequence: GAAGAUCUGCAGGAUAUGAGACUGAAACAGUUCUCAGAAGGGCGGACAUGAGGAUCACCCAUGUAAGACUGCAA [Eternabot (Original) Solution 4] (Eterna round: R97, puzzle: Exclusion 6)
Group: False
//
Polymer sequence: GGAUUGUCAGGAUAUCUUAUACUUCAUAAGUGAGGAUAAAUAGAGAAGGGACAUGAGGAUCACCCAUGUAAUAA [Exclusion 4 S1] (Eterna round: R97, puzzle: Exclusion 4)
Group: True
//
Polymer sequence: UUGUUACAUGAGGAUCACCCAUGUGAGGAUAUGGUUCAGUACUGUCAUGUCACGUACUCCAGAAGGCACAUGUU [1st #31] (Eterna round: R97, puzzle: Exclusion 1)
Group: True

----------
test system: K4 kissing-loop RNA reporter; test: apparent KD of K4 kissing-loop reporter; higher = weaker reporter binding; conditions: Eterna round: R107; input ligand: theophylline 20 uM;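 also: bound reporter read as fluorescence of individual clusters on recovered sequencing chips by microscopy, with normalized cluster intensities fitted with a binding model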
Where apparent KD of K4 kissing-loop reporter equals or exceeds 200 nM, the correct label is true (1); where it does not, the label is false (0).

Polymer sequence: GGAGCAGGUGAAGGAUAUCCCGGGCCAGAGUGAUGUUCUGGAUCCCUUGCCGUUUCUAAACGGGUGGGAGAAGGUCACUGAUAAG [Bibimati]
Group: false (0)

Polymer sequence: ACGUCCGGAUUAAUCGUGGGCAUGGUCGAUACCAGAUCUUUAAUGAUCCCUUGGCAGCGACAUGAGUGAUGUUCAUGUGCGAUGA [KL-XTheo-A8 #analogue]
Group: true (1)

Polymer sequence: AAAUAAAAGGCGGCCGCCACUGAACGCCUCCGCGUGGGUAUAUAGUGAUGUUAUAUGGCCGCCUUCAGGACCGGGCCAAAUAAAA [AstrosSSTryB#1]
Group: true (1)

Polymer sequence: UGAUACCAGACGGCCGCCACUCCCGCAGGUCAAAGACCUGCGAAGCUGGUUCUUCAGUGAUGUUGGAGGACCGGGUCUGGUAUCU [FiskerMod 24 - Jieux - Exclusion - Tryptophan B]
Group: true (1)

Polymer sequence: GUAUCGCUAGGAGGAUAUUUCAAUUCGUCAAUAAAUGGUGAUACGGAGUGAUGUUCCGAUUUACGGAAAGAAGGCCUAGUGAUAC [FMN B 7]
Group: true (1)

Polymer sequence: GACUCUCUCGUCAGGAAGACGCACUCAGCCAAGGAUAUUAUGUUUUUAAGAAGGUGGACUUAUGCCAGUGAUGUUGGCAGAUACG [theeternabot_sameState_KL_FMN_A_29]
Group: false (0)

Polymer sequence: GCUGUCCAGUUCGAUACCAGAGUUAUCGCACUGUAGUGAUAAAGUGAUGUUUUAUCAGUCCUCCCUUGGCAGCGAUGCCCGGCUG [theeternabot_exclusion_KL_Theo_B_25]
Group: false (0)

Polymer sequence: UGGAGUUGACGAAAAGUCAACUCCUGGGAAGGAGCGGACGAAAGUCCAGGUAGGUCGCUCACUACCAGUGAUGUUGGUACUUAAA
Group: true (1)

Polymer sequence: GCAGUGAUGUUGCACGAGUAGGCUAGAGUACGAGGACCGGUACGGCCGCCACUCGUACGGAAGUCGCUAAUUUAUGGAAUGGUGA [#05 K4 Tryptophan A Same State]
Group: true (1)

Polymer sequence: UGUGUACCGGGAAGGAGCGUGAAUGAGAAUGGAUAUAGUGAUGUUAUGUAUACGAACGAAUCGCAGGUAGGUCGCCCGGAUCCCU [SSArgB.Z]
Group: true (1)

Polymer sequence: AGAUUCGACACGGCCGCCACUCGUGGUGGAUUACCUAGUGUCGAAGUUGAGUGAUGUUCAAGUACGAGGACCGGGUGUUGAGUCU [KL-XTryp-B8 #analogue]
Group: true (1)

Polymer sequence: UGGACAUGACUCGAUAAGAGUCAAUGGGAUACCAGUGACGAAAGUCACCCUUGGCAGCUCAACUGCCAGUGAUGUUGGUAGUCCA [Astros-Elo-mod#2]
Group: false (0)

Polymer sequence: CGCUUGGGUGCGGCCGCCACUAGAGCGUGACACGGGUCCCAAAAGGGUGCAGUGAUGUUGCAGCCUAGGACCGGGCACCUCUGGC [Beveesbe]
Group: false (0)

Polymer sequence: CACCAUGAAUUCUCUAGGAGUGAUGUUUUUCGAGGACCGGUACGGCCGCCACUCGGACGAGGACCCUGGGAGCGGCGAAGCGGCU [nigmullin]
Group: true (1)

Polymer sequence: UGAUACCAGACUGAUACCAGCAAGUGAUGUUUGUUGAUCAAAAGCAGUCAAAGACUGCUUUGCCCUUGGCAGCAGUCUGGUAUCU [#10 K4 Theophylline B Exclusion]
Group: true (1)

Polymer sequence: CGCGUACAGUGUUCUACGGCCGAGAGUGAUACCAGCCGUAUUUGUGGCCCUUGGCAGCGCAGAUGCAGUGAUGUUGCAUACUUGG [Same State Theophylline A GF 21]
Group: false (0)

Polymer sequence: GGUGCUGUUUGUGCCGCCUUCCUCGUUCCUCGAGGACCGGUACGGCCGCCACUCGAGUGAUGUUUGGGUAGCGAUCCCUGCUAGU [Bdazzled - #13 Exc. Tryptophan A]
Group: true (1)

Polymer sequence: UAGGAGUGAUGUUCCAUAUGUAAGGCCGAAGGAGCGGCAUUAUAGCCAGGUAGGUCGCGGCAGUACGUACCAGUGAUGUUGGAAA [KL-SSArg-A5]
Group: false (0)

Polymer sequence: CGAGAAAGAGCGACUGGCGAUCUGUCUGAAGGAGCGGGUGCUAGCCCAGGUAGGUCGCAGACUUUGACGCCAGUGAUGUUGGCGG [Titidiisxe]
Group: false (0)

Polymer sequence: AUGGGUCCACGAAGGAGCGCCGUGCAGUGAUGUUGCAGUUAGAUCCAGUGAUGUUUGGGCCGGCAGGUAGGUCGCGUGGAUUUAU [Exclusion Arginine B GF 22]
Group: true (1)

Polymer sequence: CAUAGACAAGUGAUGUUUGUCAUAACCGAAGGAGCGUCUUUAAAGACAGGUAGGUCGCGGAUUAAUUAAGUUAUUAUUCUUUUUA [JR_SSArginiA_Sub018]
Group: true (1)

Polymer sequence: AAAAUUGCGGUCGAUAGAACUUUUUGCUUACGAGGACCGGUACGGCCGCCACUCGAGUCAAGUGAUGUUUGAUUUUCUAUUAUUA [JR_ExcTryptoA_Sub014]
Group: false (0)

Polymer sequence: UGUUAUGUAUCAGGAUAUUAGUGAUGUUUGUUGAUGUUAGUGAUGUUGAUAUUUGUUUUAUGUAUUUAAGAAGGGAUUGAGAUGU [ooilmullin]
Group: false (0)

Polymer sequence: CGCCGUAAGGCGAGCGCUCCCACUCCGGAAGGAGCGCCCGAAAGGGCAGGUAGGUCGCCGGAGUGAUGUUCCGGUGGAGGGCUCG [#2 Exclusion - Arginine A Attempt #28 (Inspired by Omei)]
Group: true (1)
